# assay: Toxicity in beagle dog assessed as maximum tolerated dose
# Format: organism-based, Canis lupus familiaris
# settings: in vivo
measured_endpoint: MTD

[Q] Consider the molecule COC(=O)[C@H](c1ccccc1Cl)N1CCc2sc(OC(C)=O)cc2C1 [SUMECIGREL] and give its measured MTD.
[A] > 2000 mg/kg

----------
Measured AUC values are reported for all entries that follow.
# Tested on: Rattus norvegicus
# assay: AUC (0 to infinity) in Sprague-Dawley rat […] at 24 umol/kg, po
# Format: ADME, organism-based, Plasma
# Design: dose 24 umol/kg, route oral, time infinity
# settings: in vivo
Return type: number; implicit unit ng·h/mL.

compound	measured_target	result_value
COC(=O)[C@H](c1ccccc1Cl)N1CCc2sccc2C1 [CLOPIDOGREL]	Rattus norvegicus	32.2

Pending compound:
[Q] Value lookup for AUC; key = COC(=O)[C@H](c1ccccc1Cl)N1CCc2sc(OC(C)=O)cc2C1 [SUMECIGREL]
[A] 211
